Quick list: clearance per entry.
assay: Clearance in Sprague-Dawley rat at 1 mg/kg, iv measured during 2 mins to 24 hrs period post dose by LC/MS/MS method; type: ADME, organism-based; parameters: dose 1 mg/kg, route intravenous; conditions: in vivo
The reply should read as a number followed by its unit.

(Q) Which clearance value belongs to `Cn1cc(-c2cccc(-n3ccc4cc(C5CC5)cc(F)c4c3=O)c2CO)cc(Nc2ccc(N3CCN(C4COC4)CC3)cn2)c1=O` ?
(A) 7.83 mL/min/kg

Proceed to the following item.
(Q) Which clearance value belongs to `CN1CCN(c2ccc(Nc3cc(-c4cccc(-n5ccc6cc(C7CC7)cc(F)c6c5=O)c4CO)cn(C)c3=O)nc2)CC1` ?
(A) 41.2 mL/min/kg
